# target entity: calcitonin receptor (Rattus norvegicus, UniProt P32214)
# Construct: Kidneys were removed and placed in ice cold saline; from tissue; host or cells: Sprague-Dawley rat kidney, renal plasma membrane
# Sequence (P32214 25-479 isoform P32214-2 limits assumed): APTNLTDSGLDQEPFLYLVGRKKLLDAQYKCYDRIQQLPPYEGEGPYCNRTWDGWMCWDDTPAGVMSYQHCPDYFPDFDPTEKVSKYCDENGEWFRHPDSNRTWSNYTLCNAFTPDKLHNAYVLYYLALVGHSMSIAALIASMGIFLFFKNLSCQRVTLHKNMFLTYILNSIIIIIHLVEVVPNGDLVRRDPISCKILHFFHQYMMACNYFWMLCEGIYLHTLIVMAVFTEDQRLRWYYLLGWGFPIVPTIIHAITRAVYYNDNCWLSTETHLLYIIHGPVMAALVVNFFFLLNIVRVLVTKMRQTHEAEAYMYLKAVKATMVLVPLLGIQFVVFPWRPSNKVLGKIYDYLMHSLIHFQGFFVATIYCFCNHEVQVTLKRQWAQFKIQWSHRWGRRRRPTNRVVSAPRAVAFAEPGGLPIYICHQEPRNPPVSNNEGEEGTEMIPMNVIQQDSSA
# procedure text: binding to the calcitonin receptor (125I-salmon calcitonin displacement, rat renal plasma membrane)
# Set-up: species or system rat (Sprague-Dawley)
# study conditions: 1 hour at room temperature
measured parameter: IC50 (µM)
Numbers only, in µM.

Quick one: IC50 of CC1=C2O[C@]3(O)C=C2C(=C(O)C1=O)[C@@H]1O[C@H](CC[C@H](C)/C=C(\C)C[C@@H](C)C[C@@H]3C)[C@H](C)[C@H](O)[C@H]1C (relative stereo) [Formula I] ?
20.5
